Sourced from paper PMC10180488

# Test system: human red blood cells (HRBC)
# PROCEDURE_DETAILS: HRBC membrane stabilization method
# STATED_CONDITIONS: Homo sapiens, Erythrocyte, read-out: IC50 Values, HRBC membrane stabilization method

- COMPOUND: "C=CCc1ccc(OCC(=O)Nc2cccc(Cl)c2)c(OC)c1"
  IC50 (µM): 58.1
- COMPOUND: "O=C(O)Cc1ccccc1Nc1c(Cl)cccc1Cl [Standard Diclofenac, Diclofenac, reference compound]"
  IC50 (µM): 48.1
- COMPOUND: "C=CCc1ccc(OCC(=O)Nc2ccc([N+](=O)[O-])cc2)c(OC)c1"
  IC50 (µM): 83.2
- COMPOUND: "C=CCc1ccc(OCC(=O)Nc2cccc(C(F)(F)F)c2)c(OC)c1"
  IC50 (µM): 66.3
